system_tested: T1, Human SEZ6L2 (Homo sapiens, UniProt Q6UXD5)
T1 construct: a protein composed of the extracellular portion of the human SEZ6L2 protein; His6 (C); made in house; host or cells: CHO (ExpiCHO)
method_description: ForteBio Octet binding kinetics, Protein A biosensors
metric: K(off)
Please reply with the number alone, leaving off any unit.

Task item: I have this molecule here, 2E4: humanized anti-SEZ6L2 antibody, VH SEQ ID NO: 25, VL SEQ ID NO: 29 (antibody, V domains shown) VH: EVKLVESGGVLVKPGGSLRLSCAASGFTFSKYAMSWVRQAPGKGLEWVSTISSGGSYTYYPDSVKGRFTISRDNARNSLYLQMNSLRAEDTAIYYCTREGGYDEGYAMDYWGQGTTVTVSSA VL: DIVMTQSPDSLAVSLGERATINCRSSQSLVHSYGNTYLHWYQQKPGQPPKLLIYKVSNRFSGVPDRFSGSGSGTDFTLTISSLQAEDVAVYFCSQSTHFRTFGGGTKVEIKR , and I need its recorded K(off).
Reply: 1.33E−03
